Just for reference, patent US12060347B2 is where these values come from.

# subjectOfTest: human PAR4 (Homo sapiens, UniProt Q96RI0)
# Sequence (Q96RI0 18-385): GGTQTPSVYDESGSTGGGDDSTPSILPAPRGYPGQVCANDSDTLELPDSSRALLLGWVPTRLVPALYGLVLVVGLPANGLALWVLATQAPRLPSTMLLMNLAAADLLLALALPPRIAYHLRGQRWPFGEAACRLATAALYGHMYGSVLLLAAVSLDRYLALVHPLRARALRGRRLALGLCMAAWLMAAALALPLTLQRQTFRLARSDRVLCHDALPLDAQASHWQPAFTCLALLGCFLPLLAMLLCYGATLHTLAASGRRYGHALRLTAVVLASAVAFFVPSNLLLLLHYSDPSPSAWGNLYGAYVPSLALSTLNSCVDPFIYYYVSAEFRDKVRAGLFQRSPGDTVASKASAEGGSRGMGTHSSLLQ
# assayProcedure: PAR4 FLIPR assay: antagonism of agonist-peptide-induced calcium mobilization in PAR4-expressing HEK293 cells
# measurementConditions: H-Ala-Phe(4-F)-[…]NH2-induced intracellular calcium mobilization, 11-point curves
Assign labels as follows, please: fulfilled for IC50 below 3 nM; not fulfilled for IC50 equal to or exceeding 3 nM.

molecule	class
COc1cnc2c(-c3nc4c(Cl)c(F)c(OC[C@@H](C)OC(=O)Nc5cccnc5C)cc4s3)cc(C)cc2n1	not fulfilled
COc1cnc2c(-c3nc4cc(F)c(O[C@@H](C)[C@@H](C)OC(=O)Nc5ccc(C(=O)NC[C@H](C)O)nc5)nc4s3)cc(C)cc2n1	fulfilled
COc1cnc2c(-c3nc4cc(F)c(O[C@@H](C)[C@@H](C)OC(=O)Nc5cnc(O[C@H](C)CO)nc5)nc4s3)cc(C)cc2n1	fulfilled
COCc1cnc2c(-c3nc4c(C(O)c5ccccc5)cc(OC)cc4s3)cc(C)cc2n1 (single isomer, unassigned) [Example 163]	fulfilled
COc1cnc2c(-c3nc4cc(F)c(O[C@@H](C)[C@@H](C)OC(=O)Nc5cnc(OC)nc5)cc4s3)cc(C)cc2n1	fulfilled
COc1cnc2c(-c3nc4cc(F)c(OC[C@@H](C)OC(=O)Nc5cnc(OC)nc5)cc4s3)cc(C)cc2n1	not fulfilled
Cc1cc(-c2cc3c(o2)CCCC3NC(=O)OC(C)(C)C)c2ncc(OC(F)F)nc2c1 (centres unmarked)	not fulfilled
COCc1cnc2c(-c3nc4c(C(O)C5CCC5)cc(OC)cc4s3)cc(C)cc2n1 (centres unmarked)	fulfilled
COc1cnc2c(-c3nc4cc(F)c(OC[C@@H](C)OC(=O)Nc5cnc(OCCC(C)(C)O)nc5)cc4s3)cc(C)cc2n1	not fulfilled
COc1cnc2c(-c3nc4cc(F)c(O[C@@H](C)[C@@H](C)OC(=O)Nc5ccnc(CCO)c5)nc4s3)cc(C)cc2n1	fulfilled
COc1cnc2c(-c3nc4c(C)cc(OC[C@@H](C)OC(=O)Nc5cnc(OC)nc5)nc4s3)cc(C)cc2n1	not fulfilled
Cc1cc(-c2nc3c(C)cc(OCCNS(=O)(=O)c4ccc(C(F)(F)F)cc4)cc3s2)c2ncc(OC(F)F)nc2c1	not fulfilled
COc1cnc2c(-c3nc4cc(F)c(O[C@@H](C)[C@@H](C)OC(=O)Nc5ccnc(OCCO)c5)nc4s3)cc(Cl)cc2c1	not fulfilled
COc1cnc2c(-c3nc4cc(F)c(O[C@@H](C)[C@@H](C)OC(=O)Nc5ccc(N(C)C)nc5)cc4s3)cc(C)cc2n1	not fulfilled
